molecular target: Cysteinyl leukotriene receptor 1 (Cavia porcellus) (UniProt Q2NNR5); assay: Effective dose for the inhibition of percent protection from LTD4-induced dyspnea in a conscious guinea pig administered through oral route; assay type: functional
Sequence (Q2NNR5 whole entry): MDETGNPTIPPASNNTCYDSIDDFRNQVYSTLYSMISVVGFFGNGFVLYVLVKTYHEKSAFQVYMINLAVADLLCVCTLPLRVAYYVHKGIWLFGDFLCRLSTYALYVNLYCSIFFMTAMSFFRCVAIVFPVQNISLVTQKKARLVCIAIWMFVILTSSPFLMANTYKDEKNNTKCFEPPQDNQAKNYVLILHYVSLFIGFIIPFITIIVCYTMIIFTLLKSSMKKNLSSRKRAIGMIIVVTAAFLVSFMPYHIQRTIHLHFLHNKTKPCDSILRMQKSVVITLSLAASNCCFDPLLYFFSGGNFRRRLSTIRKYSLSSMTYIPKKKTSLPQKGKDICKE
Experimental readout: ED50 (µmol/kg)

Completed entries (count: 2):
Record COc1cc(C(=O)NS(=O)(=O)c2ccccc2C)ccc1Cc1cn(C)c2ccc(C(=O)NCC(C)CC(F)(F)F)cc12 (centres undefined) . Reported ED50: 1.44

Record COc1cc(C(=O)NS(=O)(=O)c2ccccc2C)ccc1Cn1cc(C)c2ccc(C(=O)NCC(C)CC(F)(F)F)cc21 (centres undefined) . Reported ED50: 2.29

[1] COc1cc(C(=O)NS(=O)(=O)c2ccccc2C)ccc1Cc1cn(C)c2ccc(NC(=O)OC3CCCC3)cc12
[2] COc1cc(C(=O)NS(=O)(=O)c2ccccc2C)ccc1Cc1cn(C)c2ccc(C(=O)NC[C@H](C)CC(F)(F)F)cc12
Query string: Hi, I'm comparing 1 with 2 and wondering which one has the bigger number for ED50. Any idea? Kindly state the label of the option you pick.
Result string: 2
(2: 1.14 µmol/kg, 1: 0.54 µmol/kg)

====

target: Cysteinyl leukotriene receptor 1 (Cavia porcellus); assay: Binding constant in guinea pig tracheal spirals with LTE4; assay type: tissue-based; settings: Trachea
Experimental readout: pKB

Record `COc1cc(C(=O)NS(=O)(=O)c2ccccc2C)ccc1Cc1cn(C)c2ccc(C(=O)NCCC(C(F)(F)F)C(F)(F)F)cc12` . Reported pKB: 9.3

Record COc1cc(C(=O)NS(=O)(=O)c2ccccc2C)ccc1Cn1cc(C)c2ccc(C(=O)NCC(C)CC(F)(F)F)cc21 (configuration not stated) . Reported pKB: 9.6

Record `CCC(CC)CNC(=O)c1ccc2c(c1)c(Cc1ccc(C(=O)NS(=O)(=O)c3ccccc3C)cc1OC)cn2C` . Reported pKB: 8

Record CCC(C)CNC(=O)c1ccc2c(c1)c(Cc1ccc(C(=O)NS(=O)(=O)c3ccccc3C)cc1OC)cn2C (configuration not stated) . Reported pKB: 8.7

Record `COc1cc(C(=O)NS(=O)(=O)c2ccccc2C)ccc1Cc1cn(C)c2ccc(C(=O)NC[C@@H](C)CC(F)(F)F)cc12` . Reported pKB: 9.28

Record COc1cc(C(=O)NS(=O)(=O)c2ccccc2Cl)ccc1Cc1cn(C)c2ccc(C(=O)NCC(C)CC(F)(F)F)cc12 (configuration not stated) . Reported pKB: 9.7

Record `COc1cc(C(=O)NS(=O)(=O)c2ccccc2C)ccc1Cc1cn(C)c2ccc(C(=O)NC[C@H](C)CC(F)(F)F)cc12` . Reported pKB: 10.1

Record `COc1cc(C(=O)NS(=O)(=O)c2ccccc2C)ccc1Cc1cn(C)c2ccc(NC(=O)OC3CCCC3)cc12` . Reported pKB: 9.67

Record CCC(CNC(=O)c1ccc2c(c1)c(Cc1ccc(C(=O)NS(=O)(=O)c3ccccc3Br)cc1OC)cn2C)CC(F)(F)F (configuration not stated) . Reported pKB: 9.3

Record `COc1cc(C(=O)NS(=O)(=O)c2ccccc2C)ccc1Cc1cn(C)c2ccc(C(=O)NCC3CCCC3)cc12` . Reported pKB: 8.4

Record CCCCC(CNC(=O)c1ccc2c(c1)c(Cc1ccc(C(=O)NS(=O)(=O)c3ccccc3C)cc1OC)cn2C)C(F)(F)F (configuration not stated) . Reported pKB: 8.8

Record CCn1cc(Cc2ccc(C(=O)NS(=O)(=O)c3ccccc3C)cc2OC)c2cc(C(=O)NCC(C)CC(F)(F)F)ccc21 (configuration not stated) . Reported pKB: 10.1
